Listed here: items and their measured pEC50.
System: Leishmania donovani axenic amastigote parasites
test details: Leishmania donovani axenic amastigote proliferation assay (Cell TiterGlo luminescence, 2 day incubation)
Assay type: cell-based
measurement conditions: Leishmania donovani, L. donovani axenic amastigotes; read-out: L. donovani amastigotes EC50
Scale explanation: pEC50 corresponds to minus log10 of a concentration expressed in moles per litre.

# lookup: `CC(C)OC(=O)Nc1cnc2nc(-c3cc(Nc4cccnc4)ccc3F)cn2c1` on Leishmania donovani axenic amastigote parasites, pEC50 = 4.79

# lookup: `CN(CC(F)(F)F)C(=O)Nc1ccc(F)c(-c2cn3cc(Br)cnc3n2)c1` on Leishmania donovani axenic amastigote parasites, pEC50 = 6.26

# lookup: `COc1cccnc1-c1cnc2nc(-c3cc(NC(=O)c4oc(C)nc4C)ccc3F)cn2c1` on Leishmania donovani axenic amastigote parasites, pEC50 = 6.89

# lookup: `COc1cccnc1Nc1ccc(F)c(-c2cn3cc(NC(=O)OC(C)C)cnc3n2)c1` on Leishmania donovani axenic amastigote parasites, pEC50 = 6.07

# lookup: `CC(C)CNc1cnc2nc(-c3cc(NC(=O)N4CCCC4)ccc3F)cn2c1` on Leishmania donovani axenic amastigote parasites, pEC50 = 6.68
